Data origin: patent US20090042883A1

Test system: human renal cancer OS-RC-2 cells
Experiment: Growth inhibition test on human renal cancer OS-RC-2 cells (WST-1, % viability)
Assay type: cell-based
Conditions: test compound 10 μmol/L, 72 hours, cells without test compound = 100%
measured-property: Viability of tumor cells (% viability), Human renal cancer OS-RC-2 cells (%)
Numbers only, in %.

[[record]]
smiles_code = "CCc1c(O)cc(O)c(C(=O)c2ccc(OC(F)(F)F)cc2)c1CC(=O)N(CCO)CCOC"
target_or_test_system = "human renal cancer OS-RC-2 cells"
measured_result = 17

[[record]]
smiles_code = "CCc1c(O)cc(O)c(C(=O)c2ccc(OC)cc2)c1CC(=O)N1CCN(c2ccccc2C#N)CC1"
target_or_test_system = "human renal cancer OS-RC-2 cells"
measured_result = 20


Prompt line: Entry `CCc1c(O)cc(O)c(C(=O)c2ccc(OCCCN3CCOCC3)c(OC)c2)c1CC(=O)N(CCOC)CCOC` : reported Viability of tumor cells (% viability), Human renal cancer OS-RC-2 cells = ?
Response line: 20
